# TEST SYSTEM: T1, Macaca fascicularis PDGFRb.mmh (Macaca fascicularis)
# T1 construct: Soluble monomeric construct; also called mfPDGFRb.mmh
# T1 chain: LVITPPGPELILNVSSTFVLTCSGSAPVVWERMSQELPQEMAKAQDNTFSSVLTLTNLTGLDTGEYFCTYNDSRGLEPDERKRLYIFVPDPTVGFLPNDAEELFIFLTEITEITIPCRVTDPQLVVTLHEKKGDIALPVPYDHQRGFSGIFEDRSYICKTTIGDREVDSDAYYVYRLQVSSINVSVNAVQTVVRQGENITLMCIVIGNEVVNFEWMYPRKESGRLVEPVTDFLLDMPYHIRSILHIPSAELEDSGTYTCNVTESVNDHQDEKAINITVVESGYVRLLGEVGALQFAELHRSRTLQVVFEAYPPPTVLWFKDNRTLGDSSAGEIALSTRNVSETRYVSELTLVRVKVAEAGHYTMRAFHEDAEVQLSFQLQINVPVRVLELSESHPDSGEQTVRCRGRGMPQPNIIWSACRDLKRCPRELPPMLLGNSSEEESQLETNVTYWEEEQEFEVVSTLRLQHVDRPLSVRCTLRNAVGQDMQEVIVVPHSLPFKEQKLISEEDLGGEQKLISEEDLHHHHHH
# ASSAY OVERVIEW: SPR, mAb captured, 37 C
# Experimental: Antibodies, expressed as either mouse Fc (prefix H1M; H2M) or human Fc (prefix H4H), were captured on their respective anti-Fc sensor surfaces (Mab capture format). […] Kinetic association (kₐ) and dissociation (kd) rate constants were determined by processing and fitting the data to a 1:1 binding model using Scrubber 2.0 curve fitting software.
The entries below are paired with their reported kon.
Form entry: value (M⁻¹ s⁻¹) — number only.

Consider the reported kon for these binders:
| BINDER | ENDPOINT VALUE |
| --- | --- |
| H4H3098S (antibody, human IgG4, V domains shown, human IgG4 Fc (H4H prefix)) VH: EVQLVESGGGVVQPGRSLRLSCAASGFTFSNYGMHWVRQAPGKGLEWVTVIWYDGSYKYYADSVKGRFTISRDNSKNRLYLQMNSLRAEDTAVYYCARGELGDAFDIWGQGTMVTVSS VL: DIQMTQSPSTLSASVGDRLTITCRASQSISTWLAWYQQKPGKAPTLLIYKASSLESGVPSRFSGSGSGTDFTLTISSLQPDDFATYYCQQYKTSWTFGQGTKLEIKR | 280000 |
| H4H3096S (antibody, human IgG4, V domains shown, human IgG4 Fc (H4H prefix)) VH: EVQLVQSGGSLVQPGGSLRLSCTASGFTFSSYWMSWVRQAPGKGLEWVANIQQDESEKYYVDSVKGRFSISRDNAKKSLYLQMNSLRAEDTAVYFCARDLVPPRQGDYYHYFGMDVWGQGTLVTVSS VL: AIRMTQSPSTLSASVGDRVTITCRASQSISDWLAWYQQKPGKAPNLLIYKASSLESGVPSRFSGSGSGTEFTLTISGLQPDDFATYYCQQYNSYSRTFGQGTKLEIKR | 162000 |
| H4H3105S (antibody, human IgG4, V domains shown, human IgG4 Fc (H4H prefix)) VH: QVQLVESGGSLVQPGGSLRLACTASGFTFSSYWMSWVRQAPGKGLEWVANIQQDENEKYYVDSVKGRFSISRDNAKKSLYLQMNSLRVEDTAVYFCARDLVPPRQGDYYHYFGMDVWGQGTTVTVSS VL: DIQLTQSPSTLSASVGDRVTITCRASQSISDWLAWYQQKPGKAPNLLIYKASTLESGVPSRFSGSGSGTEFTLTISSLQPDDFATYYCQQYNSYSRTFGQGTKVEIK | 289000 |

// query kon value for entry H4H3102S (antibody, human IgG4, V domains shown, human IgG4 Fc (H4H prefix)) VH: EVQLVESGGDLVHPGRSLRLSCVASGFTFDDYTMHWVRQAPGKGLEWVSAISWNGDNINYAGSVKGRFTISRDNAKNSLYLEMNSLRVEDTAFYYCAKGRGFSFGFNYLGQGTMVTVSS VL: AIRMTQSPSSLSASVGDRVTITCRASQDISNYLAWFQQQPGKAPKSLIYATSSLNSGVPSKFSGSGSGTDFTLTISSLQPEDFATYYCQQYKSYPLTFGGGTKVEIK
574000

Let us now turn to H4H3103S (antibody, human IgG4, V domains shown, human IgG4 Fc (H4H prefix)) VH: EVQLLQSGGGLVQPGGSLRLSCAASGFTFSHYWMSWVRQGPGKGLEWVATIKKDGSESYYVDSVRGRFTISRDNAKNSLYLQMNSLRTEDTAVYYCARDIVTPNVGYYFGMDVWGQGTTVTVSS VL: DIQMTQSPSTLSASVGDRVTITCRASQSISSWLSWYQQKPGKAPKLLIYMASTLESGVPSRFSGSGSGTDFTLTITSLQPDDFATYYCQQSNSYSRTFGHGTKLEIK
544000

Origin of values: patent US20170210813A1
